Exercise: state measured Activity for each of the compounds provided.
# System: PBMC
# PROTOCOL: Reversal of FK506-induced inhibition of cell proliferation in concanavalin A stimulated human PBMC at 1 uM measured after 72 hrs by CellTiter-Glo assay relative to control
# Assay type: functional
# Set-up: scale not given: the % may be the effect or the level left
One number for each entry, in %.

Worked cases, answers included:
QUERY SMILES: CO[C@H]1C[C@@H](C)C/C(C)=C/[C@@H](CCCC(=O)N(CCO)CCO)C(=O)C[C@H](O)[C@@H](C)[C@@H](/C(C)=C/[C@@H]2CC[C@@H](O)[C@H](OC)C2)OC(=O)[C@@H]2CCCCN2C(=O)C(=O)[C@]2(O)O[C@H]1[C@@H](OC)C[C@H]2C
Activity (%): 36.2
--
QUERY SMILES: CO[C@H]1C[C@@H](C)C/C(C)=C/[C@@H](CCCC(=O)N2CCC(CO)CC2)C(=O)C[C@H](O)[C@@H](C)[C@@H](/C(C)=C/[C@@H]2CC[C@@H](OCCO)[C@H](OC)C2)OC(=O)[C@@H]2CCCCN2C(=O)C(=O)[C@]2(O)O[C@H]1[C@@H](OC)C[C@H]2C
Activity (%): 81.7
--
QUERY SMILES: CO[C@H]1C[C@@H](C)C/C(C)=C/[C@@H](CCCC(=O)NCCc2ccccn2)C(=O)C[C@H](O)[C@@H](C)[C@@H](/C(C)=C/[C@@H]2CC[C@@H](O)[C@H](OC)C2)OC(=O)[C@@H]2CCCCN2C(=O)C(=O)[C@]2(O)O[C@H]1[C@@H](OC)C[C@H]2C
Activity (%): 36.6
--
QUERY SMILES: CO[C@H]1C[C@@H](C)C/C(C)=C/[C@@H](CCCC(=O)N2CC(O)C2)C(=O)C[C@H](O)[C@@H](C)[C@@H](/C(C)=C/[C@@H]2CC[C@@H](O)[C@H](OC)C2)OC(=O)[C@@H]2CCCCN2C(=O)C(=O)[C@]2(O)O[C@H]1[C@@H](OC)C[C@H]2C
Activity (%): 49.9

--- query ---
Request: Would you kindly share the measured Activity for CO[C@H]1C[C@@H](C)C/C(C)=C/[C@@H](CCCC(=O)N2CCN(C)CC2)C(=O)C[C@H](O)[C@@H](C)[C@@H](/C(C)=C/[C@@H]2CC[C@@H](OCCO)[C@H](OC)C2)OC(=O)[C@@H]2CCCCN2C(=O)C(=O)[C@]2(O)O[C@H]1[C@@H](OC)C[C@H]2C ?
Result: 67.8

----------
# SYSTEM: Peptidyl-prolyl cis-trans isomerase FKBP1A (Homo sapiens)
# Sequence (P62942 whole entry): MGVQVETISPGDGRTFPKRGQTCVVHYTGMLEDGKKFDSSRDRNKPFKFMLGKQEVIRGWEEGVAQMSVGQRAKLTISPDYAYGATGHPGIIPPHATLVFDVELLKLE
# PROTOCOL: Antagonist activity at human FKBP12 measured after 30 mins by fluorescein labelled SLF tracer based fluorescence polarization assay
EXPERIMENTAL ENDPOINT: IC50
Write the numeric value and append its unit.

Request: What reported IC50 corresponds to CO[C@H]1C[C@@H](C)C/C(C)=C/[C@@H](CCCSCCO)C(=O)C[C@H](O)[C@@H](C)[C@@H](/C(C)=C/[C@@H]2CC[C@@H](O)[C@H](OC)C2)OC(=O)[C@@H]2CCCCN2C(=O)C(=O)[C@]2(O)O[C@H]1[C@@H](OC)C[C@H]2C on Peptidyl-prolyl cis-trans isomerase FKBP1A (Homo sapiens)?
Result: 0.027 µM

----------
# PROTOCOL: Terminal half-life in mouse at 3 mg/kg, iv
# Assay type: ADME, organism-based
# ASSAY SETUP: in vivo, read-out: beta t1/2 (converted)
Exercise: state measured half-life for each of the compounds provided.
One number for each entry, in min.

COMPOUND: CO[C@H]1C[C@@H](C)C/C(C)=C/[C@@H](CCCSCCO)C(=O)C[C@H](O)[C@@H](C)[C@@H](/C(C)=C/[C@@H]2CC[C@@H](O)[C@H](OC)C2)OC(=O)[C@@H]2CCCCN2C(=O)C(=O)[C@]2(O)O[C@H]1[C@@H](OC)C[C@H]2C
half-life (min): 47.6

For every listed record, write down its half-life.
1. CO[C@H]1C[C@@H](C)C/C(C)=C/[C@@H](CC(=O)N2CCCC2)C(=O)C[C@H](O)[C@@H](C)[C@@H](/C(C)=C/[C@@H]2CC[C@@H](O)[C@H](OC)C2)OC(=O)[C@@H]2CCCCN2C(=O)C(=O)[C@]2(O)O[C@H]1[C@@H](OC)C[C@H]2C
2. CC[C@@H]1/C=C(\C)C(O)[C@H](C)C[C@H](OC)[C@H]2O[C@@](O)(C(=O)C(=O)N3CCCC[C@H]3C(=O)O[C@H](/C(C)=C/[C@@H]3CC[C@@H](O)[C@H](OC)C3)[C@H](C)[C@@H](O)CC1=O)[C@H](C)C[C@@H]2OC (stereo not given in full)
3. CO[C@H]1C[C@@H](C)C/C(C)=C/[C@@H](CC(=O)N2CCCC2)C(=O)C[C@H](O)[C@@H](C)[C@@H](/C(C)=C/[C@@H]2CC[C@@H](OC(=O)N3CC(O)C3)[C@H](OC)C2)OC(=O)[C@@H]2CCCCN2C(=O)C(=O)[C@]2(O)O[C@H]1[C@@H](OC)C[C@H]2C
4. C=CC[C@@H]1/C=C(\C)C[C@H](C)C[C@H](OC)[C@H]2O[C@@](O)(C(=O)C(=O)N3CCCC[C@H]3C(=O)O[C@H](/C(C)=C/[C@@H]3CC[C@@H](O)[C@H](OC)C3)[C@H](C)[C@@H](O)CC1=O)[C@H](C)C[C@@H]2OC [TACROLIMUS ANHYDROUS]

Result:
42.8
66.6
81.6
57.1

----------
# PROTOCOL: Cmax in mouse at 10 mg/kg, po
# Format: ADME, organism-based
# Parameters: dose 10 mg/kg, route oral
# ASSAY SETUP: in vivo
EXPERIMENTAL ENDPOINT: Cmax
Write the numeric value and append its unit.

For every listed record, write down its Cmax.
1. CO[C@H]1C[C@@H](C)C/C(C)=C/[C@@H](CC(=O)N2CCCC2)C(=O)C[C@H](O)[C@@H](C)[C@@H](/C(C)=C/[C@@H]2CC[C@@H](OC(=O)N3CC(O)C3)[C@H](OC)C2)OC(=O)[C@@H]2CCCCN2C(=O)C(=O)[C@]2(O)O[C@H]1[C@@H](OC)C[C@H]2C
2. CO[C@H]1C[C@@H](C)C/C(C)=C/[C@@H](CCCSCCO)C(=O)C[C@H](O)[C@@H](C)[C@@H](/C(C)=C/[C@@H]2CC[C@@H](O)[C@H](OC)C2)OC(=O)[C@@H]2CCCCN2C(=O)C(=O)[C@]2(O)O[C@H]1[C@@H](OC)C[C@H]2C
3. CC[C@@H]1/C=C(\C)C(O)[C@H](C)C[C@H](OC)[C@H]2O[C@@](O)(C(=O)C(=O)N3CCCC[C@H]3C(=O)O[C@H](/C(C)=C/[C@@H]3CC[C@@H](O)[C@H](OC)C3)[C@H](C)[C@@H](O)CC1=O)[C@H](C)C[C@@H]2OC (stereo partly drawn)

Result:
1. 814 ng/mL
2. 1640 ng/mL
3. 184 ng/mL

----------
Exercise: state measured Vd for each of the compounds provided.
# PROTOCOL: Volume of distribution at steady state in mouse at 3 mg/kg, iv
# Assay type: ADME, organism-based
# ASSAY SETUP: in vivo, read-out: Vdss
Give bare numbers, in L/kg.

COMPOUND: CO[C@H]1C[C@@H](C)C/C(C)=C/[C@@H](CC(=O)N2CCCC2)C(=O)C[C@H](O)[C@@H](C)[C@@H](/C(C)=C/[C@@H]2CC[C@@H](OC(=O)N3CC(O)C3)[C@H](OC)C2)OC(=O)[C@@H]2CCCCN2C(=O)C(=O)[C@]2(O)O[C@H]1[C@@H](OC)C[C@H]2C
REPORTED VALUE: 1.35

--- query ---
Request: Would you kindly share the measured Vd for C=CC[C@@H]1/C=C(\C)C[C@H](C)C[C@H](OC)[C@H]2O[C@@](O)(C(=O)C(=O)N3CCCC[C@H]3C(=O)O[C@H](/C(C)=C/[C@@H]3CC[C@@H](O)[C@H](OC)C3)[C@H](C)[C@@H](O)CC1=O)[C@H](C)C[C@@H]2OC [TACROLIMUS ANHYDROUS] ?
Result: 1.8

----------
Exercise: state measured AUC(0-t) for each of the compounds provided.
# PROTOCOL: AUClast in mouse at 10 mg/kg, po
# Type: ADME, organism-based
# Design: dose 10 mg/kg, time 0 - last, route oral
# ASSAY SETUP: in vivo
Write the numeric value and append its unit.

COMPOUND: CO[C@H]1C[C@@H](C)C/C(C)=C/[C@@H](CC(=O)N2CCCC2)C(=O)C[C@H](O)[C@@H](C)[C@@H](/C(C)=C/[C@@H]2CC[C@@H](OC(=O)N3CC(O)C3)[C@H](OC)C2)OC(=O)[C@@H]2CCCCN2C(=O)C(=O)[C@]2(O)O[C@H]1[C@@H](OC)C[C@H]2C
AUC(0-t): 1860 ng·h/mL
--
COMPOUND: CO[C@H]1C[C@@H](C)C/C(C)=C/[C@@H](CCCSCCO)C(=O)C[C@H](O)[C@@H](C)[C@@H](/C(C)=C/[C@@H]2CC[C@@H](O)[C@H](OC)C2)OC(=O)[C@@H]2CCCCN2C(=O)C(=O)[C@]2(O)O[C@H]1[C@@H](OC)C[C@H]2C
AUC(0-t): 2710 ng·h/mL

--- query ---
Request: Would you kindly share the measured AUC(0-t) for CC[C@@H]1/C=C(\C)C(O)[C@H](C)C[C@H](OC)[C@H]2O[C@@](O)(C(=O)C(=O)N3CCCC[C@H]3C(=O)O[C@H](/C(C)=C/[C@@H]3CC[C@@H](O)[C@H](OC)C3)[C@H](C)[C@@H](O)CC1=O)[C@H](C)C[C@@H]2OC (stereo partly drawn) ?
Result: 208 ng·h/mL
